- System: chloroquine-resistant strains of the human-pathogenic Plasmodium falciparum
- Test Name: Growth inhibition of chloroquine-resistant Plasmodium falciparum strains in vitro
- Format: cell-based
- Protocol Conditions: Plasmodium falciparum, read-out: IC50 growth inhibition, strain Indo, chloroquine-resistant
Value Kind: IC50

Please tell me: IC50 of Clc1ccc2c(NCc3ccccc3CNc3ccnc4cc(Cl)ccc34)ccnc2c1 [Example 1] , system chloroquine-resistant strains of the human-pathogenic Plasmodium falciparum? 6.9 ng/mL

Please tell me: IC50 of Clc1ccc2c(NCc3cccc(CNc4ccnc5cc(Cl)ccc45)c3)ccnc2c1 [Example 2] , system chloroquine-resistant strains of the human-pathogenic Plasmodium falciparum? 15.8 ng/mL

Please tell me: IC50 of Clc1ccc2c(N[C@H]3CC[C@H](Nc4ccnc5cc(Cl)ccc45)CC3)ccnc2c1 [Example 4] , system chloroquine-resistant strains of the human-pathogenic Plasmodium falciparum? 6 ng/mL

Please tell me: IC50 of CCN(CC)CCCC(C)Nc1ccnc2cc(Cl)ccc12 (centres unmarked) [Chloroquine, reference compound] , system chloroquine-resistant strains of the human-pathogenic Plasmodium falciparum? 52 ng/mL

Please tell me: IC50 of Clc1ccc2c(NC3CCC(CC4CCC(Nc5ccnc6cc(Cl)ccc56)CC4)CC3)ccnc2c1 (centres unmarked) [Example 12] , system chloroquine-resistant strains of the human-pathogenic Plasmodium falciparum? 13.7 ng/mL

Please tell me: IC50 of C[C@H]1[C@@H](Nc2ccnc3cc(Cl)ccc23)CCC[C@H]1Nc1ccnc2cc(Cl)ccc12 [Example 8] , system chloroquine-resistant strains of the human-pathogenic Plasmodium falciparum? 6.4 ng/mL

Please tell me: IC50 of Clc1ccc2c(N[C@H]3CC[C@@H](Nc4ccnc5cc(Cl)ccc45)CC3)ccnc2c1 [Example 5] , system chloroquine-resistant strains of the human-pathogenic Plasmodium falciparum? 4.4 ng/mL

Please tell me: IC50 of Clc1ccc2c(NCc3ccc(CNc4ccnc5cc(Cl)ccc45)cc3)ccnc2c1 [Example 3] , system chloroquine-resistant strains of the human-pathogenic Plasmodium falciparum? 2.9 ng/mL

---

- Tested on: chloroquine-resistant strains of the human-pathogenic Plasmodium falciparum
- Test Name: Growth inhibition of chloroquine-resistant Plasmodium falciparum strains in vitro
- Assay type: cell-based
- Protocol Conditions: ratio of average IC50 values for resistant strains and average values for sensitive strains
Value Kind: Resistance index
The answer should be written as a number, with no unit following it.

Give the measured Resistance index of Clc1ccc2c(Nc3cccc(Nc4ccnc5cc(Cl)ccc45)c3)ccnc2c1 [Example 9] . 0.9

Give the measured Resistance index of Clc1ccc2c(NCC3CCCC(CNc4ccnc5cc(Cl)ccc45)C3)ccnc2c1 (centres unmarked) [Example 11] . 1.1

Give the measured Resistance index of CCN(CC)CCCC(C)Nc1ccnc2cc(Cl)ccc12 (centres unmarked) [Chloroquine, reference compound] . 8.7

Give the measured Resistance index of Clc1ccc2c(NC3CCC(CC4CCC(Nc5ccnc6cc(Cl)ccc56)CC4)CC3)ccnc2c1 (centres unmarked) [Example 12] . 0.9

Give the measured Resistance index of C[C@H]1[C@@H](Nc2ccnc3cc(Cl)ccc23)CCC[C@H]1Nc1ccnc2cc(Cl)ccc12 [Example 8] . 1.3

Give the measured Resistance index of Clc1ccc2c(NCc3cccc(CNc4ccnc5cc(Cl)ccc45)c3)ccnc2c1 [Example 2] . 2.8

Give the measured Resistance index of Clc1ccc2c(N[C@H]3CC[C@H](Nc4ccnc5cc(Cl)ccc45)CC3)ccnc2c1 [Example 4] . 2.1

Give the measured Resistance index of Clc1ccc2c(NCc3ccccc3CNc3ccnc4cc(Cl)ccc34)ccnc2c1 [Example 1] . 0.9

Give the measured Resistance index of Clc1ccc2c(NCc3ccc(CNc4ccnc5cc(Cl)ccc45)cc3)ccnc2c1 [Example 3] . 0.7

Give the measured Resistance index of Clc1ccc2c(N[C@H]3CC[C@@H](Nc4ccnc5cc(Cl)ccc45)CC3)ccnc2c1 [Example 5] . 2.1

Give the measured Resistance index of Clc1ccc2c(N[C@@H]3CCC[C@H](Nc4ccnc5cc(Cl)ccc45)C3)ccnc2c1 [Example 6] . 1.0

---

- System: chloroquine-resistant strains of the human-pathogenic Plasmodium falciparum
- Test Name: Growth inhibition of chloroquine-resistant Plasmodium falciparum strains in vitro
- Assay type: cell-based
- Protocol Conditions: Plasmodium falciparum, read-out: IC50 growth inhibition, strain Indo, chloroquine-resistant
Value Kind: IC50 (ng/mL)
Report the figure in ng/mL without appending any unit label.

Give the measured IC50 of Clc1ccc2c(Nc3cccc(Nc4ccnc5cc(Cl)ccc45)c3)ccnc2c1 . 7.7

Give the measured IC50 of Clc1ccc2c(N[C@@H]3CCC[C@H](Nc4ccnc5cc(Cl)ccc45)C3)ccnc2c1 . 3

Give the measured IC50 of Clc1ccc2c(NCC3CCCC(CNc4ccnc5cc(Cl)ccc45)C3)ccnc2c1 (stereo not drawn) . 14.4

---

Kindly state IC50 for each of the entries shown.
- Test system: chloroquine-sensitive strains of the human-pathogenenic Plasmodium falciparum
- Test Name: Growth inhibition of chloroquine-sensitive Plasmodium falciparum strains in vitro
- Format: cell-based
- Protocol Conditions: strain FCH5C2, chloroquine-sensitive, read-out: IC50 growth inhibition
Report the figure in ng/mL without appending any unit label.

Give the measured IC50 of Clc1ccc2c(NCc3ccccc3CNc3ccnc4cc(Cl)ccc34)ccnc2c1 [Example 1] . 6.6

Give the measured IC50 of Clc1ccc2c(NCc3cccc(CNc4ccnc5cc(Cl)ccc45)c3)ccnc2c1 [Example 2] . 12.5

Give the measured IC50 of C[C@H]1[C@@H](Nc2ccnc3cc(Cl)ccc23)CCC[C@H]1Nc1ccnc2cc(Cl)ccc12 [Example 8] . 6.1

Give the measured IC50 of Clc1ccc2c(NCC3CCCC(CNc4ccnc5cc(Cl)ccc45)C3)ccnc2c1 (stereo not shown) [Example 11] . 14.5

Give the measured IC50 of Clc1ccc2c(N[C@H]3CC[C@H](Nc4ccnc5cc(Cl)ccc45)CC3)ccnc2c1 [Example 4] . 3.6

Give the measured IC50 of Clc1ccc2c(Nc3cccc(Nc4ccnc5cc(Cl)ccc45)c3)ccnc2c1 [Example 9] . 15.6

Give the measured IC50 of Clc1ccc2c(NCc3ccc(CNc4ccnc5cc(Cl)ccc45)cc3)ccnc2c1 [Example 3] . 12.7

Give the measured IC50 of Clc1ccc2c(NC3CCC(CC4CCC(Nc5ccnc6cc(Cl)ccc56)CC4)CC3)ccnc2c1 (stereo not shown) [Example 12] . 19.4

Give the measured IC50 of Clc1ccc2c(N[C@@H]3CCC[C@H](Nc4ccnc5cc(Cl)ccc45)C3)ccnc2c1 [Example 6] . 6.4

Give the measured IC50 of Clc1ccc2c(N[C@H]3CC[C@@H](Nc4ccnc5cc(Cl)ccc45)CC3)ccnc2c1 [Example 5] . 3.9

---

- Tested on: chloroquine-resistant strains of the human-pathogenic Plasmodium falciparum
- Test Name: Growth inhibition of chloroquine-resistant Plasmodium falciparum strains in vitro
- Assay type: cell-based
- Protocol Conditions: Plasmodium falciparum, read-out: IC50 growth inhibition, strain W2 Mef, chloroquine-resistant
Note to self: IC50 under 8 ng/mL means T, ties and anything higher get F.

Consider the compound Clc1ccc2c(N[C@@H]3CCC[C@H](Nc4ccnc5cc(Cl)ccc45)C3)ccnc2c1 . Is its IC50 strictly less than 8 ng/mL? T

Consider the compound C[C@H]1[C@@H](Nc2ccnc3cc(Cl)ccc23)CCC[C@H]1Nc1ccnc2cc(Cl)ccc12 . Is its IC50 strictly less than 8 ng/mL? F

Consider the compound Clc1ccc2c(NCc3ccccc3CNc3ccnc4cc(Cl)ccc34)ccnc2c1 . Is its IC50 strictly less than 8 ng/mL? T

Consider the compound Clc1ccc2c(NC3CCC(CC4CCC(Nc5ccnc6cc(Cl)ccc56)CC4)CC3)ccnc2c1 (centres unmarked) . Is its IC50 strictly less than 8 ng/mL? F

Consider the compound Clc1ccc2c(N[C@H]3CC[C@H](Nc4ccnc5cc(Cl)ccc45)CC3)ccnc2c1 . Is its IC50 strictly less than 8 ng/mL? T

Consider the compound Clc1ccc2c(NCc3ccc(CNc4ccnc5cc(Cl)ccc45)cc3)ccnc2c1 . Is its IC50 strictly less than 8 ng/mL? F

Consider the compound Clc1ccc2c(NCc3cccc(CNc4ccnc5cc(Cl)ccc45)c3)ccnc2c1 . Is its IC50 strictly less than 8 ng/mL? F

Consider the compound Clc1ccc2c(NCC3CCCC(CNc4ccnc5cc(Cl)ccc45)C3)ccnc2c1 (centres unmarked) . Is its IC50 strictly less than 8 ng/mL? F

Consider the compound Clc1ccc2c(Nc3cccc(Nc4ccnc5cc(Cl)ccc45)c3)ccnc2c1 . Is its IC50 strictly less than 8 ng/mL? F

Consider the compound CCN(CC)CCCC(C)Nc1ccnc2cc(Cl)ccc12 (centres unmarked) [Chloroquine, reference compound] . Is its IC50 strictly less than 8 ng/mL? F

Consider the compound Clc1ccc2c(N[C@H]3CC[C@@H](Nc4ccnc5cc(Cl)ccc45)CC3)ccnc2c1 . Is its IC50 strictly less than 8 ng/mL? T

---

- Test system: chloroquine-resistant strains of the human-pathogenic Plasmodium falciparum
- Test Name: Growth inhibition of chloroquine-resistant Plasmodium falciparum strains in vitro
- Format: cell-based
- Protocol Conditions: Plasmodium falciparum, read-out: IC50 growth inhibition, strain 7G8, chloroquine-resistant
- Procedure: Test Method for the Determination of the Activity Against Plasmodium falciparum in vitro The preparations are tested on intraerythrocytary stages of Plasmodium falciparum from asynchronous cultures according to the method of Desjardin et al. (Desjardins, R. E. et al: Quantitative assessment of antimalarial activity in vitro by a semiautomated microdilution technique. Antimicrob. Agents Chemother. 16, 710-718, (1979)). […]
Kindly state IC50 for each of the entries shown.
Report the figure in µg/mL without appending any unit label.

Give the measured IC50 of Clc1ccc2c(NCC3CCCC(CNc4ccnc5cc(Cl)ccc45)C3)ccnc2c1 (stereo not shown) [Example 11] . 0.0205

Give the measured IC50 of Clc1ccc2c(N[C@H]3CC[C@H](Nc4ccnc5cc(Cl)ccc45)CC3)ccnc2c1 [Example 4] . 0.0028

Give the measured IC50 of C[C@H]1[C@@H](Nc2ccnc3cc(Cl)ccc23)CCC[C@H]1Nc1ccnc2cc(Cl)ccc12 [Example 8] . 0.0094

Give the measured IC50 of Clc1ccc2c(NC3CCC(CC4CCC(Nc5ccnc6cc(Cl)ccc56)CC4)CC3)ccnc2c1 (stereo not shown) [Example 12] . 0.0171
